- EXPERIMENT SUMMARY: total protein half-life in vivo (active degradation + dilution); higher = more stable protein
- RUN PARAMETERS: E. coli NCM3722 delta-lon; growth: N-lim chemostat; doubling time 6 h
Binary call on total protein half-life in vivo: Yes from 5 h upward, No beneath that.

1. MPGLKITLLQQPLVWMDGPANLRHFDRQLEGITGRDVIVLPEMFTSGFAMEAAASSLAQDDVVNWMTAKAQQCNALIAGSVALQTESGSVNRFLLVEPGGTVHFYDKRHLFRMADEHLHYKAGNARVIVEWRGWRILPLVCYDLRFPVWSRNLNDYDLALYVANWPAPRSLHWQALLTARAIENQAYVAGCNRVGSDGNGCHYRGDSRVINPQGEIIATADAHQATRIDAELSMAALREYREKFPAWQDADEFRLW : No
2. MNSHNITNESLALALMLVVVAILISHKEKLALEKDILWSVGRAIIQLIIVGYVLKYIFSVDDASLTLLMVLFICFNAAWNAQKRSKYIAKAFISSFIAITVGAGITLAVLILSGSIEFIPMQVIPIAGMIAGNAMVAVGLCYNNLGQRVISEQQQIQEKLSLGATPKQASAILIRDSIRAALIPTVDSAKTVGLVSLPGMMSGLIFAGIDPVKAIKYQIMVTFMLLSTASLSTIIACYLTYRKFYNSRHQLVVTQLKKK : Yes
3. MSAFTPASEVLLRHSDDFEQSRILFAGDLQDDLPARLDTAASRAHTQQFHHWQVLSRQMGDNARFSLVATADDVADCDTLIYYWPKNKPEAQFQLMNLLSLLPVGTDIFVVGENRSGVRSAEQMLADYAPLNKVDSARRCGLYFGRLEKQPVFDAEKFWGEYSVDGLTVKTLPGVFSRDGLDVGSQLLLSTLTPHTKGKVLDVGCGAGVLSVAFARHSPKIRLTLCDVSAPAVEASRATLAANGVEGEVFASNVFSEVKGRFDMIISNPPFHDGMQTSLDAAQTLIRGAVRHLNSGGELRIVANAFLPYPDVLDETFGFHEVIAQTGRFKVYRAIMTRQAKKG : Yes
4. MAKYNEKELADTSKFLSFVLRHKPEAIGIVLDREGWADIDKLILCAQKAGKRLTRALLDTVVATSDKKRFSYSSDGRCIRAVQGHSTSQVAISFAEKTPPQFLYHGTASRFLDEIKKQGLIAGERHYVHLSADEATARKVGARHGSPVILTVKAQEMAKRGLPFWQAENGVWLTSTVAVEFLEW : No
5. MSSNFRHQLLSLSLLVGIAAPWAAFAQAPISSVGSGSVEDRVTQLERISNAHSQLLTQLQQQLSDNQSDIDSLRGQIQENQYQLNQVVERQKQILLQIDSLSSGGAAAQSTSGDQSGAAASTTPTADAGTANAGAPVKSGNANTDYNAAIALVQDKSRQDDAMVAFQNFIKNYPDSTYLPNANYWLGQLNYNKGKKDDAAYYFASVVKNYPKSPKAADAMFKVGVIMQDKGDTAKAKAVYQQVISKYPGTDGAKQAQKRLNAM : Yes
